# subjectOfTest: recombinant rat α1β3γ2F77I receptors (Rattus norvegicus, UniProt P18508+P62813, F115I)
# Sequence (P62813 28-455, one chain of several): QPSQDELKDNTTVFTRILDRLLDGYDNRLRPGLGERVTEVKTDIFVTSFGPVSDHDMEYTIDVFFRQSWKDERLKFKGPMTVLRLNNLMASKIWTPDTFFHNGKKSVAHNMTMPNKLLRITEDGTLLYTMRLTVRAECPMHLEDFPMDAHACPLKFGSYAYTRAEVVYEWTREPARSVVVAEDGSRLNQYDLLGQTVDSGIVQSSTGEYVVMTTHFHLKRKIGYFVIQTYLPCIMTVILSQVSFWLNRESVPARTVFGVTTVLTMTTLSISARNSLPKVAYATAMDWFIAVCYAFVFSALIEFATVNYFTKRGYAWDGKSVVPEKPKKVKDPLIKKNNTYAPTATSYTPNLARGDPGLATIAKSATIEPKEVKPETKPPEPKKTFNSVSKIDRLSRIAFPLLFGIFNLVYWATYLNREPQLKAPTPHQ
# Sequence (P18508 39-466 F115I, one chain of several): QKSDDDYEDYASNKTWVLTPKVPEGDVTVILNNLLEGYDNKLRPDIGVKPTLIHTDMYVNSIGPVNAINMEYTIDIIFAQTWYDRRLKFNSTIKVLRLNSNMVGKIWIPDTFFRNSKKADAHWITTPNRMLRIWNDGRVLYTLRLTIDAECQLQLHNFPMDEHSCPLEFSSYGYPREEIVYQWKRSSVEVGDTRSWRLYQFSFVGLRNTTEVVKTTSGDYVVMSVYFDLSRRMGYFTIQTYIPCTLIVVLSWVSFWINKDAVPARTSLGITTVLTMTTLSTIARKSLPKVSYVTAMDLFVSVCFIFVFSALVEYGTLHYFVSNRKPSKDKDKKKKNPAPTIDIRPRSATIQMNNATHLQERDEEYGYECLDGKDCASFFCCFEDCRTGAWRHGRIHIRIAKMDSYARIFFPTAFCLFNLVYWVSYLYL
# experimentNotes: Two-electrode voltage clamp of GABA-induced chloride currents in Xenopus oocytes
# Format: cell-based
# cond: 100 nM; α1β3γ2F77I; ns = not significant
reportedEndpoint: efficacy (% GABA EC3)

Some solved entries appear below for comparison.
So what's the measured efficacy (% GABA EC3) for this one? Cc1nnc2ccc(-c3cccc(C(F)(F)F)c3)nn12 [CL 218872]
ns

Now the same for CN1CCN(C(=O)OC2c3nccnc3C(=O)N2c2ccc(Cl)cn2)CC1 (stereo not drawn) [Zopiclone]
ns

Same thing, different compound: COCc1c(C(=O)OC(C)C)ncc2[nH]c3ccc(OCc4ccccc4)cc3c12 [Abecarnil]
ns

Another compound to look at: CCOC(=O)c1ncn2c1C1CCCN1C(=O)c1cc(OC)ccc1-2 [L-655,708]
ns

Another compound to check: CCOC(=O)c1ncn2c1CN(C)C(=O)c1cc(F)ccc1-2 [Ro15–1788]
ns

Provide each entry's efficacy (% GABA EC3) from the list below.
1. CN1C(=O)CN=C(c2ccccc2)c2cc(Cl)ccc21 [Diazepam]
2. Cc1ccc(-c2nc3ccc(C)cn3c2CC(=O)N(C)C)cc1 [Zolpidem]
3. CC(C)(C)OC(=O)c1ncn2c1[C@@H]1CCCN1C(=O)c1c(Br)cccc1-2 [Bretazenil]
4. CCc1c(C(=O)OC)ncc2[nH]c3cc(OC)c(OC)cc3c12 [DMCM]

["162 ± 17 % GABA EC3", "ns", "120 ± 6 % GABA EC3", "ns"]

* * *

# subjectOfTest: recombinant rat α3β3γ2 receptors (Rattus norvegicus, UniProt P18508+P20236)
# Sequence (P20236 29-493, one chain of several): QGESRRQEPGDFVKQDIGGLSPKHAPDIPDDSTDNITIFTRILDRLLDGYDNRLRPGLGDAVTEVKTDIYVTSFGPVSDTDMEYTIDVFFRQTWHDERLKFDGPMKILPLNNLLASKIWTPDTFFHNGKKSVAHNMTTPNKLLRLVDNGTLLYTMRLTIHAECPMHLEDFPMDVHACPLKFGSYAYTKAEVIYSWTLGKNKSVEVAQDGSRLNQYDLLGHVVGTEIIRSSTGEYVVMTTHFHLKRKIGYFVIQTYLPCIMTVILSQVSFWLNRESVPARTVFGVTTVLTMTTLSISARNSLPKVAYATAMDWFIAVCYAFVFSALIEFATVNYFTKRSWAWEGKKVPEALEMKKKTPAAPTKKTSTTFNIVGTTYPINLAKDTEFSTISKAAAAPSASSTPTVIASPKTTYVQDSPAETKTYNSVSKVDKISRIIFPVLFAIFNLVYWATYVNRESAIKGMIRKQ
# experimentNotes: Two-electrode voltage clamp of GABA-induced chloride currents in Xenopus oocytes
# Type: cell-based
# cond: 10 μM; α3β3γ2; ns = not significant
reportedEndpoint: efficacy (% GABA EC3)
Numbers only, in % GABA EC3.

Worked set:
What does the record list as efficacy (% GABA EC3) for CCc1c(C(=O)OC)ncc2[nH]c3cc(OC)c(OC)cc3c12 [DMCM] ?
185

How about this compound: CC(C)(C)OC(=O)c1ncn2c1[C@@H]1CCCN1C(=O)c1c(Br)cccc1-2 [Bretazenil]
234

Entry to check: CN1CCN(C(=O)OC2c3nccnc3C(=O)N2c2ccc(Cl)cn2)CC1 (stereo not drawn) [Zopiclone]
559

Field entry: CN1C(=O)CN=C(c2ccccc2)c2cc(Cl)ccc21 [Diazepam]
738

Thanks! And Cc1nnc2ccc(-c3cccc(C(F)(F)F)c3)nn12 [CL 218872] ?
195

As a next step, examine the compound that follows.
efficacy (% GABA EC3) for CCOC(=O)c1ncn2c1CN(C)C(=O)c1cc(F)ccc1-2 [Ro15–1788] ?
157

* * *

# subjectOfTest: recombinant rat α2β3γ2F77I receptors (Rattus norvegicus, UniProt P18508+P23576, F115I)
# Sequence (P23576 29-451, one chain of several): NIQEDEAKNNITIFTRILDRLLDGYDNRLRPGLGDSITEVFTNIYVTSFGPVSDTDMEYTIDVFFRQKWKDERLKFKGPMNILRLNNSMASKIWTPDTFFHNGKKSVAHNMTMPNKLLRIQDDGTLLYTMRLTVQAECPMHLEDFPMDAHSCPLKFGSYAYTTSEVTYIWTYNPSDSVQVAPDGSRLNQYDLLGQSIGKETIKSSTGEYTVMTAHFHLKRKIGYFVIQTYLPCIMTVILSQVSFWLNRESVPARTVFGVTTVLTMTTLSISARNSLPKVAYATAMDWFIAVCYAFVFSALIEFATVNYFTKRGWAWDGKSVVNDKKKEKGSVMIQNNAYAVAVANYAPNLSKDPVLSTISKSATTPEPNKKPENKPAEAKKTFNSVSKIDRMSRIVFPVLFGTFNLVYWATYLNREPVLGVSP
# Sequence (P18508 39-466 F115I, one chain of several): as the sequence (P18508 39-466 F115I, one chain of several) above
# experimentNotes: Two-electrode voltage clamp of GABA-induced chloride currents in Xenopus oocytes
# Assay type: cell-based
# cond: 1 μM; α2β3γ2F77I; ns = not significant
Task for the reader: assign each of the following compounds its reported efficacy (% GABA EC3).
Numbers only, in % GABA EC3.

Any idea what efficacy (% GABA EC3) came out for CC(C)(C)OC(=O)c1ncn2c1[C@@H]1CCCN1C(=O)c1c(Br)cccc1-2 on recombinant rat α2β3γ2F77I receptors (Rattus norvegicus, UniProt P18508+P23576, F115I)?
125

***
Field: efficacy (% GABA EC3) (recombinant rat α2β3γ2F77I receptors (Rattus norvegicus, UniProt P18508+P23576, F115I)). Entry: CCc1c(C(=O)OC)ncc2[nH]c3cc(OC)c(OC)cc3c12
123

* * *

# subjectOfTest: recombinant rat α5β3γ2 receptors (Rattus norvegicus, UniProt P18508+P19969)
# Sequence (P19969 32-464 limits assumed, one chain of several): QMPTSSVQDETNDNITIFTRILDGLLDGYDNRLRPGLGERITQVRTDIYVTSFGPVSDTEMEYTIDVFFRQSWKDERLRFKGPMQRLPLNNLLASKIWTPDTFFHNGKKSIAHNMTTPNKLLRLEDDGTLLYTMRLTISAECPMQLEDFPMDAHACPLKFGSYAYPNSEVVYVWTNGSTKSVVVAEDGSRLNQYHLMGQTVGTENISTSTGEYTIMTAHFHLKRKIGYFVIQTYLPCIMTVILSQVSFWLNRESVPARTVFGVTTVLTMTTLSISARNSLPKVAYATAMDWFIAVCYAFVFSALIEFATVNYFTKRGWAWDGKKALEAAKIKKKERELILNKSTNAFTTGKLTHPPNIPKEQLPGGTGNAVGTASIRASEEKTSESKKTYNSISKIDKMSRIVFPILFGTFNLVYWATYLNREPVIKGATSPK
# experimentNotes: Two-electrode voltage clamp of GABA-induced chloride currents in Xenopus oocytes
# Type: cell-based
# cond: 100 nM; α5β3γ2; ns = not significant
Give efficacy (% GABA EC3) for every item shown.
Numbers only, in % GABA EC3.

Guide cases for efficacy (% GABA EC3), answers given:
Recorded efficacy (% GABA EC3) of CCc1c(C(=O)OC)ncc2[nH]c3cc(OC)c(OC)cc3c12 [DMCM] , please.
52

Note, next up: CN1C(=O)CN=C(c2ccccc2)c2cc(Cl)ccc21 [Diazepam]
274

Repeat for the following molecule: CC(C)(C)OC(=O)c1ncn2c1[C@@H]1CCCN1C(=O)c1c(Br)cccc1-2 [Bretazenil]
205

# ---- query molecule ----
So what does the record say about efficacy (% GABA EC3) for CN1CCN(C(=O)OC2c3nccnc3C(=O)N2c2ccc(Cl)cn2)CC1 (stereo not drawn) [Zopiclone] ?
191

* * *

# subjectOfTest: recombinant rat α4β3γ2 receptors (Rattus norvegicus, UniProt P18508+P28471)
# Sequence (P28471 36-552): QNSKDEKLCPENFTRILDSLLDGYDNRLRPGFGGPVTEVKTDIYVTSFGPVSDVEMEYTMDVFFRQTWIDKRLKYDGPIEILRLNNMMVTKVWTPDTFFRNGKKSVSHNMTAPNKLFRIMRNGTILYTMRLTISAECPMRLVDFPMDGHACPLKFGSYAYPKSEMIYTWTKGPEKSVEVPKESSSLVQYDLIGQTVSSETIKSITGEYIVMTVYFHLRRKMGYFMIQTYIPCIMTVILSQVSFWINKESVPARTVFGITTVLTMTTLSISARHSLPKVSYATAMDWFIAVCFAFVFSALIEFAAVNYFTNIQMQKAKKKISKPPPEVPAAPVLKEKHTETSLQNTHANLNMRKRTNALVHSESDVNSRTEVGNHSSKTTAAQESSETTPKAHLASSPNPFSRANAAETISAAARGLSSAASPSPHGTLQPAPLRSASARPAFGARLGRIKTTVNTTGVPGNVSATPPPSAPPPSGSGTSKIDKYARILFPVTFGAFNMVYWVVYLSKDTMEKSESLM
# Sequence (P63079 26-473 partner): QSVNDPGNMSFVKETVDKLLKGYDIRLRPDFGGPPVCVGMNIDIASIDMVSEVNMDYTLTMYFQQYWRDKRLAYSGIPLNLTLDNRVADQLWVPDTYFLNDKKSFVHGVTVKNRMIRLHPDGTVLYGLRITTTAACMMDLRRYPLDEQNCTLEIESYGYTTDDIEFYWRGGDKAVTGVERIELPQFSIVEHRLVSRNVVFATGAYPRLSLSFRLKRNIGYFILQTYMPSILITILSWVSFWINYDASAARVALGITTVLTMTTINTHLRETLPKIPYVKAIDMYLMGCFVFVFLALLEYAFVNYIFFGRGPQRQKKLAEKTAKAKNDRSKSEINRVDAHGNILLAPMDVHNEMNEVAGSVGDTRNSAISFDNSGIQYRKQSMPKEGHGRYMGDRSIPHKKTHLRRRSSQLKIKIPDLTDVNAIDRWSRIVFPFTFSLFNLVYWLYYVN
# Sequence (P18508 39-466): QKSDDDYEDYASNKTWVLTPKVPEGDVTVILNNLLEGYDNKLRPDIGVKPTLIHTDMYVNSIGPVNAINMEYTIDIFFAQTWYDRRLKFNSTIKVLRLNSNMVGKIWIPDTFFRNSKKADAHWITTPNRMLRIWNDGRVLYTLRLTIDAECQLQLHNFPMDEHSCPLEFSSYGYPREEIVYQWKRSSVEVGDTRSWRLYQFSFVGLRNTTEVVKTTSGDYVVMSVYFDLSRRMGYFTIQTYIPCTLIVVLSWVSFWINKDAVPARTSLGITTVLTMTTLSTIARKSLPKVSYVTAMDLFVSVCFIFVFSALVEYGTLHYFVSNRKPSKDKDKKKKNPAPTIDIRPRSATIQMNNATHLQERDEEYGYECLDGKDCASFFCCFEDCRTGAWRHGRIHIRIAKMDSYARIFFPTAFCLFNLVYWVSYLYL
# experimentNotes: Two-electrode voltage clamp of GABA-induced chloride currents in Xenopus oocytes
# Assay type: cell-based
# cond: 10 μM; α4β3γ2; ns = not significant
Would you kindly list efficacy (% GABA EC3) for each of these compounds?
One number for each entry, in % GABA EC3.

Please review the following examples before continuing.
Which efficacy (% GABA EC3) is reported for this compound? CC(C)(C)OC(=O)c1ncn2c1[C@@H]1CCCN1C(=O)c1c(Br)cccc1-2 [Bretazenil]
395

Cool, now CCc1c(C(=O)OC)ncc2[nH]c3cc(OC)c(OC)cc3c12 [DMCM]
155

Would you kindly repeat that for CCOC(=O)c1ncn2c1CN(C)C(=O)c1cc(F)ccc1-2 [Ro15–1788] ?
181

Next compound, efficacy (% GABA EC3) to be filled in.
Which efficacy (% GABA EC3) value belongs to Cc1nnc2ccc(-c3cccc(C(F)(F)F)c3)nn12 [CL 218872] ?
199

* * *

Give measured efficacy (% GABA EC3) for each item. Keep answers brief.
# subjectOfTest: recombinant rat α1β3γ2 receptors (Rattus norvegicus, UniProt P18508+P62813)
# Sequence (P62813 28-455, one chain of several): as the sequence (P62813 28-455, one chain of several) above
# experimentNotes: Two-electrode voltage clamp of GABA-induced chloride currents in Xenopus oocytes
# Assay type: cell-based
# cond: 1 μM; α1β3γ2; ns = not significant
Give bare numbers, in % GABA EC3.

Here is how some molecules turned out for efficacy (% GABA EC3).
Entry CN1C(=O)CN=C(c2ccccc2)c2cc(Cl)ccc21 : reported efficacy (% GABA EC3) = ?
314

Param item: CC(C)(C)OC(=O)c1ncn2c1[C@@H]1CCCN1C(=O)c1c(Br)cccc1-2
136

Likewise for Cc1nnc2ccc(-c3cccc(C(F)(F)F)c3)nn12 ?
172

Let's switch to this molecule now.
Suppose we examine the molecule CN1CCN(C(=O)OC2c3nccnc3C(=O)N2c2ccc(Cl)cn2)CC1 (stereo not shown) ; what efficacy (% GABA EC3) value has been reported?
347

* * *

Give measured efficacy (% GABA EC3) for each item. Keep answers brief.
# subjectOfTest: recombinant rat α1β3γ2F77I receptors (Rattus norvegicus, UniProt P18508+P62813, F115I)
# experimentNotes: Two-electrode voltage clamp of GABA-induced chloride currents in Xenopus oocytes
# Assay type: cell-based
# cond: 10 μM; α1β3γ2F77I; ns = not significant
Numbers only, in % GABA EC3.

Solved cases (5 shown):
Request body: readout efficacy (% GABA EC3), system recombinant rat α1β3γ2F77I receptors (Rattus norvegicus, UniProt P18508+P62813, F115I), query CN1C(=O)CN=C(c2ccccc2)c2cc(Cl)ccc21 [Diazepam] . Return the value.
229

Repeat with Cc1nnc2ccc(-c3cccc(C(F)(F)F)c3)nn12 [CL 218872]
132

Item: CCc1c(C(=O)OC)ncc2[nH]c3cc(OC)c(OC)cc3c12 [DMCM]
269

Okay, and CN1CCN(C(=O)OC2c3nccnc3C(=O)N2c2ccc(Cl)cn2)CC1 (centres unmarked) [Zopiclone] ?
125

Now consider CC(C)(C)OC(=O)c1ncn2c1[C@@H]1CCCN1C(=O)c1c(Br)cccc1-2 [Bretazenil] .
164

Would you kindly look at the next entry?
For the record Cc1ccc(-c2nc3ccc(C)cn3c2CC(=O)N(C)C)cc1 [Zolpidem] , what value of efficacy (% GABA EC3) is listed for recombinant rat α1β3γ2F77I receptors (Rattus norvegicus, UniProt P18508+P62813, F115I)?
142

* * *

# subjectOfTest: recombinant rat α1β3γ2F77I receptors (Rattus norvegicus, UniProt P18508+P62813, F115I)
# experimentNotes: Two-electrode voltage clamp of GABA-induced chloride currents in Xenopus oocytes
# Format: cell-based
# cond: 1 μM; α1β3γ2F77I; ns = not significant
reportedEndpoint: efficacy (% GABA EC3)

Dear colleague, I am looking for the recorded efficacy (% GABA EC3) of the following compound: CN1C(=O)CN=C(c2ccccc2)c2cc(Cl)ccc21
220 ± 21 % GABA EC3

And CCOC(=O)c1ncn2c1C1CCCN1C(=O)c1cc(OC)ccc1-2 (centres unmarked) ?
ns

Item: CN1CCN(C(=O)OC2c3nccnc3C(=O)N2c2ccc(Cl)cn2)CC1 (centres unmarked)
ns

Again, but for CCOC(=O)c1ncn2c1CN(C)C(=O)c1cc(F)ccc1-2
ns

Then Cc1nnc2ccc(-c3cccc(C(F)(F)F)c3)nn12 ?
ns

Queued: CC(C)(C)OC(=O)c1ncn2c1[C@@H]1CCCN1C(=O)c1c(Br)cccc1-2
149 ± 12 % GABA EC3

Provide each entry's efficacy (% GABA EC3) from the list below.
1. Cc1ccc(-c2nc3ccc(C)cn3c2CC(=O)N(C)C)cc1
2. CCc1c(C(=O)OC)ncc2[nH]c3cc(OC)c(OC)cc3c12

1: ns; 2: 123 ± 3 % GABA EC3

Just for reference, paper PMC7615656 is where these values come from.
